# Target Or System: T1, cynomolgus monkey C-MET His tag, monomeric (cynomolgus monkey, UniProt A0M8R7 25-932 (Papio anubis entry))
# T1 construct: also called monomeric cyno C-MET; cyCMET
# T1 sequence (A0M8R7 25-932 S170N/I621T): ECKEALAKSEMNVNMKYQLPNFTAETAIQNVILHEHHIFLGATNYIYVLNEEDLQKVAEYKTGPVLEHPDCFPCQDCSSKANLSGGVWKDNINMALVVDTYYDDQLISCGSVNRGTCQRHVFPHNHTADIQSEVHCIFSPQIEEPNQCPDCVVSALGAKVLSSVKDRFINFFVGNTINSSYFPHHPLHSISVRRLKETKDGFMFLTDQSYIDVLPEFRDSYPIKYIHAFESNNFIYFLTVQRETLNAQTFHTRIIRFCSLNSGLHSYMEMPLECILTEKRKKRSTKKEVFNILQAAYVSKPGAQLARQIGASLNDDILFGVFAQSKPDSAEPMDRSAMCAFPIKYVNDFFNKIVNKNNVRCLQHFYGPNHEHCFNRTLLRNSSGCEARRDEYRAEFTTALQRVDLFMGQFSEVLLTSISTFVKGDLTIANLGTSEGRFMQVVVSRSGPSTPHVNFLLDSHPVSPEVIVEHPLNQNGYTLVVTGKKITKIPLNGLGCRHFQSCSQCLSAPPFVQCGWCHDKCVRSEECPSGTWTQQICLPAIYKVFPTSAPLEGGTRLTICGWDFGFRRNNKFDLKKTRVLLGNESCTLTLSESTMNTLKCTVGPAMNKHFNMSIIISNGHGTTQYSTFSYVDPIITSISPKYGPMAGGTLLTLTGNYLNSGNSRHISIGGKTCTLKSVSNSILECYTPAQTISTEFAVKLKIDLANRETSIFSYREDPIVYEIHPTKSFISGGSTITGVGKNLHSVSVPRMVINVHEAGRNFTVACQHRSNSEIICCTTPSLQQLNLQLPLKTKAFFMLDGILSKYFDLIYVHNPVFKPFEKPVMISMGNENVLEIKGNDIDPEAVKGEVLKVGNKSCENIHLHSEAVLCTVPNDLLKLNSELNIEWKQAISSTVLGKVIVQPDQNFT
# Procedure Details: SPR Biacore, IgG captured, monomeric C-MET-His analyte
Listing: koff of selected binders
Numbers only here, please. The scale is s⁻¹.

Task: Give its koff value. Item: MH10 (antibody, IgG4, V domains shown) VH: QVQLVQSGAEVKKPGASVKVSCKASGYTFTSYAMHWVRQAPGQGLEWMGWINPSGGSTSYAQKFQGRVTMTRDTSTSTVYMELSSLRSEDTAVYYCARQEITTEFDYWGQGTLVTVSS VL: EIVLTQSPGTLSLSPGERATLSCRASQSVSSYANSYLHWYQQKPGQAPRLLIYRGSTRESGIPDRFSGSGSGTDFTLTISRLEPEDFAVYYCQQSKSEPLTFGGGTKVEIK
Result: 3.6e-05
